# MEASURED_ON: MARK1 (human) (UniProt Q9P0L2)
# Sequence (Q9P0L2 whole entry, looked up): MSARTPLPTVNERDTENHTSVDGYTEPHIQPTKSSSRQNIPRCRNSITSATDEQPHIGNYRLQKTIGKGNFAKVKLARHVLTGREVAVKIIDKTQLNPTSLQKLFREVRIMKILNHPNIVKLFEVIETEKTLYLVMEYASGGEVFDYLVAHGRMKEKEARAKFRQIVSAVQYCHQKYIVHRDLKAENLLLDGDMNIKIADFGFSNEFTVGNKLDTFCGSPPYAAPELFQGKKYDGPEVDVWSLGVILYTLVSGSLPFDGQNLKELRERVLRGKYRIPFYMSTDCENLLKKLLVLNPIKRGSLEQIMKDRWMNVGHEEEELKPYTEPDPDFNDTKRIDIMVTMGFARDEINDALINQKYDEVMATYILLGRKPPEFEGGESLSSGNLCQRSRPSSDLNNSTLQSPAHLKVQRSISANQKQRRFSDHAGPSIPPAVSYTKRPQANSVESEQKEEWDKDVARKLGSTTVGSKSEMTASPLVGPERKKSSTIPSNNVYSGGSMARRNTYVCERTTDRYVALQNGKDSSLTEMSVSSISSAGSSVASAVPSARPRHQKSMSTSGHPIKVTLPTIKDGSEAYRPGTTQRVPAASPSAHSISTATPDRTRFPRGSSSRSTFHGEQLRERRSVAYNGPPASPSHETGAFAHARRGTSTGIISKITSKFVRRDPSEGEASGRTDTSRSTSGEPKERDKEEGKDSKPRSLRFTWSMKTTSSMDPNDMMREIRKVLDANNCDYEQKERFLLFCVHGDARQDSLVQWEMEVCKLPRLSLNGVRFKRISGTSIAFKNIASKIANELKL
# ASSAY_EXPLANATION: radiometric filter-binding kinase assay, Kinase HotSpot
# TEST_CONDITIONS: compound 0.5 µM; ATP 10 µM
Would you mind labelling by residual activity? At or over 90% is yes, under is no.

Exam item: decide whether the reported residual activity for Cc1cccc(-c2nc(C(C)(C)C)[nH]c2-c2ccc3c(c2)OCO3)n1 is at least 90%. no

###

# MEASURED_ON: CDK1 CCNB1 (human) (UniProt P06493+P14635)
# Sequence (P06493 whole entry, looked up): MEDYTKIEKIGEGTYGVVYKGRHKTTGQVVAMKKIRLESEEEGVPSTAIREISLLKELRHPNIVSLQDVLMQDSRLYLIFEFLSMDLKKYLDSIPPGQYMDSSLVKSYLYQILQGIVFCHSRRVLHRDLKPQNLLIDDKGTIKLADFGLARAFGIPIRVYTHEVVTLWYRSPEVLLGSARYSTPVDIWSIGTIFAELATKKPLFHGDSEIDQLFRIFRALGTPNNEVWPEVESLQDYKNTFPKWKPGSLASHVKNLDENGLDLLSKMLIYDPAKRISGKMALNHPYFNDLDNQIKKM
# Sequence (P14635 whole entry, looked up): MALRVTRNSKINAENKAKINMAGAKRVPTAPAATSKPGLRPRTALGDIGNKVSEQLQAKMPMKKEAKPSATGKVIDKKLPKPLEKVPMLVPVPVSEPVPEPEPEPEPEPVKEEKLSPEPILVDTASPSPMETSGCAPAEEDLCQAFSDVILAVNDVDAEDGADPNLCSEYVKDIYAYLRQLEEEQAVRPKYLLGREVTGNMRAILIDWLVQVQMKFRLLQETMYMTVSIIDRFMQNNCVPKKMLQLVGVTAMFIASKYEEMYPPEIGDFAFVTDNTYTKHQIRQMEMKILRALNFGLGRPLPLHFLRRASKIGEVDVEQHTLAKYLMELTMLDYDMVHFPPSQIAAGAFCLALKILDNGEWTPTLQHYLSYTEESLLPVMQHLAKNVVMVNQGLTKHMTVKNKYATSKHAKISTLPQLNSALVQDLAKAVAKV
# ASSAY_EXPLANATION: radiometric filter-binding kinase assay, Kinase HotSpot
# TEST_CONDITIONS: compound 0.5 µM; ATP 10 µM
ASSAY_METRIC: residual activity (%)
One number for each entry, in %.

SUBSTANCE_SMILES: CN1CCN(c2ccc3nc(-c4c(N)c5c(F)cccc5[nH]c4=O)[nH]c3c2)CC1
MEASURED_ON: CDK1 CCNB1 (human) (UniProt P06493+P14635)
MEASURED_NUMBER: 90.9
//
SUBSTANCE_SMILES: COc1cc2ncnc(Nc3ccc(OCc4ccccc4)cc3)c2cc1OC
MEASURED_ON: CDK1 CCNB1 (human) (UniProt P06493+P14635)
MEASURED_NUMBER: 89.9
//
SUBSTANCE_SMILES: C[C@@H]1CCN(C(=O)CC#N)C[C@@H]1N(C)c1ncnc2[nH]ccc12
MEASURED_ON: CDK1 CCNB1 (human) (UniProt P06493+P14635)
MEASURED_NUMBER: 90.8

Would you mind listing residual activity for each of the following compounds?
1. NC(=O)c1cccc(-c2cc(Nc3ccc(OC(F)(F)F)cc3)ncn2)c1
2. Cc1nc(-c2ccccc2)c(-c2ccncc2)o1

1: 92.5; 2: 90.8

###

# MEASURED_ON: UniProtKB P15735
# Sequence (P15735 whole entry, looked up): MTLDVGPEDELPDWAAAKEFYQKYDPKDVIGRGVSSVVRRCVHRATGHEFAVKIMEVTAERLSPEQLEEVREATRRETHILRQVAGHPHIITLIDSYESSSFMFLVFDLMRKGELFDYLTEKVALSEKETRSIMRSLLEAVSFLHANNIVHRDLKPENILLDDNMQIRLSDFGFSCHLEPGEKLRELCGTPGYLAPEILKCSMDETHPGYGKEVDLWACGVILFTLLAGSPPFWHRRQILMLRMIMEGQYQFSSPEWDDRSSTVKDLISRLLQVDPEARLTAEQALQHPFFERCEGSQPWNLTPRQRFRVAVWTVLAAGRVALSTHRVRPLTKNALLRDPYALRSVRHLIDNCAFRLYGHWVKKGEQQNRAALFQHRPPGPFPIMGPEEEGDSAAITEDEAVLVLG
# ASSAY_EXPLANATION: radiometric filter-binding kinase assay, Kinase HotSpot
# TEST_CONDITIONS: compound 0.5 µM; ATP 10 µM
ASSAY_METRIC: residual activity

Worked examples, 4 molecules total:
SUBSTANCE_SMILES: COc1ccc2c(c1)/C(=C/c1cnc[nH]1)C(O)=N2
MEASURED_ON: UniProtKB P15735
ASSAY_METRIC: residual activity
RESULT: 88.3%

SUBSTANCE_SMILES: COc1cc(Nc2c(C#N)cnc3cc(OCCCN4CCN(C)CC4)c(OC)cc23)c(Cl)cc1Cl
MEASURED_ON: UniProtKB P15735
ASSAY_METRIC: residual activity
RESULT: 103%

SUBSTANCE_SMILES: COc1ccc(Cl)cc1NC(=O)Nc1cc(C)nc2ccccc12
MEASURED_ON: UniProtKB P15735
ASSAY_METRIC: residual activity
RESULT: 98.6%

SUBSTANCE_SMILES: COc1ccc(S(=O)(=O)N(CCO)c2ccccc2CN(C)C/C=C/c2ccc(Cl)cc2)cc1
MEASURED_ON: UniProtKB P15735
ASSAY_METRIC: residual activity
RESULT: 103%

API: the following record is the query input.
# input molecule: CCCCc1c(-c2ccc(OC)cc2)[nH]c2nccnc12 ; wanted: its residual activity 106%

Values from the kinase profiling compilation of Christmann-Franck et al. (2016)
